# pIC50 annotations
Experimental System: Delta-type opioid receptor (Mus musculus, UniProt P32300)
Sequence (P32300 whole entry): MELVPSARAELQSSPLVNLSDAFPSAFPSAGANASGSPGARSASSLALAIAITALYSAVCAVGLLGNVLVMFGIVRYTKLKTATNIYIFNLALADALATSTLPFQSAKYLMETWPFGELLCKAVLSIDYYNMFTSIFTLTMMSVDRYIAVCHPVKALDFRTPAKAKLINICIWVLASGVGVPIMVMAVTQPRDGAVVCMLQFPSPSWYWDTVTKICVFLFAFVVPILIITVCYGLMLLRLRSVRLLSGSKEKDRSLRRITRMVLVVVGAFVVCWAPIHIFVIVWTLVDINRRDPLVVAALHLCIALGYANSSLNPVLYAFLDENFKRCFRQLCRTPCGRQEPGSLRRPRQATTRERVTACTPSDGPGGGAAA
Test Details: Inhibition of electrically evoked contractions in mouse vas deferens
Format: functional
Scale explanation: pIC50 corresponds to minus log10 of a concentration expressed in moles per litre.

Take a look at these entries with their results.
Molecule | pIC50
CC(C)[C@H](NC(=O)[C@@H]1CCC(=O)NCCCC[C@@H](NC(=O)[C@@H](N)Cc2ccc(O)cc2)C(=O)N[C@@H](Cc2ccccc2)C(=O)N1)C(=O)N[C@H](C(=O)NCC(N)=O)C(C)C | 9.33
CSCC[C@H](NC(=O)[C@H](CC(C)C)NC(=O)[C@H](Cc1cnc[nH]1)NC(=O)[C@H](Cc1ccccc1)NC(=O)[C@@H](CCSC)NC(=O)[C@@H](N)Cc1ccc(O)cc1)C(=O)N[C@@H](CC(=O)O)C(N)=O (stereo in doubt; 7) [DELTORPHIN A] | 7.01

q: Record lookup: for Delta-type opioid receptor (Mus musculus, UniProt P32300), what pIC50 belongs to CC(C)[C@H](NC(=O)[C@H](CC(=O)O)NC(=O)C1(NC(=O)[C@@H](C)NC(=O)[C@@H](N)Cc2ccc(O)cc2)CCc2ccccc2C1)C(=O)N[C@H](C(=O)NCC(N)=O)C(C)C (stereo in doubt; 3) ?
a: 9.79
